molecular target: Insulin-degrading enzyme (Homo sapiens) (UniProt P14735); experiment: inhibitors of IDE decapeptide proteolysis, dose response, counter-screen for IDE exo-site inhibitor project, biochemical, kinetic mode (AID 1259348); conditions: purified human IDE, fluorogenic decapeptide proteolysis, measured here: primary FP probe displacement screen, stronger effect = lower value;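 on z-score: purified IDE bound to fluorescein-labelled 6b probe FL-6b at the exo-site; test concentration not given here; probe displacement lowers polarization so hits show a drop in FP signal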
Sequence (P14735 42-1019 limits assumed): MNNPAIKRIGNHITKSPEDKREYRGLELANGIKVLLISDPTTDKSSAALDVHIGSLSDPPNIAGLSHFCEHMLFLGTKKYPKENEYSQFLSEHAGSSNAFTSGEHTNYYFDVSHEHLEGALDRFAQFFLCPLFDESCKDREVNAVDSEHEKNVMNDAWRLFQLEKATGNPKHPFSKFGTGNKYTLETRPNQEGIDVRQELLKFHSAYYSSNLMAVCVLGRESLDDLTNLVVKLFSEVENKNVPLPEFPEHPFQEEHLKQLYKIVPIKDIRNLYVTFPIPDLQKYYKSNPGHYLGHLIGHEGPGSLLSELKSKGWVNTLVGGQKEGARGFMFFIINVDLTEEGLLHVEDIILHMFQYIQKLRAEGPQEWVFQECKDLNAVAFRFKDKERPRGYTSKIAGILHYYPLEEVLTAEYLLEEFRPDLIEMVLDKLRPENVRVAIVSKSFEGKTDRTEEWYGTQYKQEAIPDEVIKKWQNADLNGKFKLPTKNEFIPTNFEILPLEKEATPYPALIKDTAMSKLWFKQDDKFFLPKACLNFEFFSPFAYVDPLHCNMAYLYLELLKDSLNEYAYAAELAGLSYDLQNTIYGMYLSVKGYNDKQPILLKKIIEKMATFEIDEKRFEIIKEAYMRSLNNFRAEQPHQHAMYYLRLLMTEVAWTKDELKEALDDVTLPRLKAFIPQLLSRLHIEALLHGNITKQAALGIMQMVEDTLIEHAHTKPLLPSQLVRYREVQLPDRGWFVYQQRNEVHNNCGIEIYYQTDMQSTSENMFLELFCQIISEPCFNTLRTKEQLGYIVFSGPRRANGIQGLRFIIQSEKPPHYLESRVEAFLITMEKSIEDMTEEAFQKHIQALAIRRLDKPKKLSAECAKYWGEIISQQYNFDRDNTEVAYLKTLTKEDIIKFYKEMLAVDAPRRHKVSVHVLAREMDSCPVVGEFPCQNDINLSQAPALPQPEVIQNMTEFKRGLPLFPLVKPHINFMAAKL
Output True for records whose z-score is lower than -10, False for records at or above -10.

>  <molecule>
Cc1ccccc1-c1ccc([C@H]2[C@H]3CN(C(=O)NC4CCCC4)CC(=O)N3[C@H]2CO)cc1

>  <group>
True

$$$$
>  <molecule>
Cc1cccc(-c2ccc([C@@H]3[C@@H](CO)N4C(=O)CN(C(=O)Cc5ccccn5)C[C@@H]34)cc2)c1

>  <group>
True

$$$$
>  <molecule>
CCC(=O)N1[C@H](CO)[C@H](c2ccc(-c3ccccc3OC)cc2)[C@@H]1CNC(C)=O

>  <group>
True

$$$$
>  <molecule>
CCS(=O)(=O)N1CCCCN2[C@@H](CO)[C@@H](c3ccc(C#Cc4ccccc4OC)cc3)[C@@H]2C1

>  <group>
True

$$$$
>  <molecule>
Cc1ccccc1-c1ccc([C@H]2[C@@H](CO)N3CCCCN(C(=O)NC4CCCC4)C[C@H]23)cc1

>  <group>
True

$$$$

Strictly below -10: is that where z-score of Cc1ccccc1-c1ccc([C@H]2[C@H](CO)N3C(=O)CN(C(=O)NC4CCCC4)C[C@@H]23)cc1 sits? True

---

Property: z-score; scope: individual compounds
molecular target: Insulin-degrading enzyme (Homo sapiens) (UniProt P14735); assay: inhibitors of IDE decapeptide proteolysis, dose response, counter-screen for IDE exo-site inhibitor project, biochemical, kinetic mode (AID 1259348); conditions: purified human IDE, fluorogenic decapeptide proteolysis, measured here: primary FP probe displacement screen, stronger effect = lower value;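 on z-score: purified IDE bound to fluorescein-labelled 6b probe FL-6b at the exo-site; test concentration not given here; probe displacement lowers polarization so hits show a drop in FP signal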
Respond with the number and no other words.

Please review the following examples before continuing.
>  <compound>
COc1ccccc1-c1ccc([C@H]2[C@@H](CO)N(C(=O)NC(C)C)[C@H]2C#N)cc1

>  <z-score>
-16.3

$$$$
>  <compound>
Cc1cccc(-c2ccc([C@@H]3[C@@H](CO)N4CCCCN(CCC(F)(F)F)C[C@@H]34)cc2)c1

>  <z-score>
-0.68

$$$$
>  <compound>
O=C(NC1CCCC1)N1CC(=O)N2[C@H](CO)[C@@H](c3ccc(-c4cccnc4)cc3)[C@@H]2C1

>  <z-score>
-12.2

$$$$

Could you share which z-score value was measured for Cc1ccccc1-c1ccc([C@H]2[C@H](CO)N3C(=O)CN(C(=O)c4cccnc4)C[C@@H]23)cc1 ? -12.4

Also O=C(CC1CC1)N1CC(=O)N2[C@H](C1)[C@H](c1ccc(C#Cc3ccccc3)cc1)[C@@H]2CO , if possible. -15.9

Also COc1cccc(-c2ccc([C@@H]3[C@@H](CO)N4CCCCN(C(=O)Cc5ccncc5)C[C@@H]34)cc2)c1 , if possible. -2.33

---

target: Insulin-degrading enzyme (Homo sapiens) (UniProt P14735); test: inhibitors of IDE decapeptide proteolysis, dose response, counter-screen for IDE exo-site inhibitor project, biochemical, kinetic mode (AID 1259348); details: purified human IDE, fluorogenic decapeptide proteolysis
observation-type: pIC50
pIC50 field: float, defined as -log10 of concentration (mol/L).

Please review the following examples before continuing.
>  <compound>
Cc1ccccc1-c1ccc([C@H]2[C@H]3CN(C(=O)NC4CCCC4)CCCCN3[C@H]2CO)cc1

>  <observation-type>
pIC50

>  <observed-measurement>
5.25

$$$$
>  <compound>
Cc1ccccc1-c1ccc(C2[C@@H]3CN(C(=O)C4CCCCC4)C[C@H]2N3)cc1 (stereo partly drawn)

>  <observation-type>
pIC50

>  <observed-measurement>
5.82

$$$$
>  <compound>
Cc1cccc(-c2ccc([C@@H]3[C@H](CO)N4CCCCN(S(=O)(=O)c5cn(C)cn5)C[C@@H]34)cc2)c1

>  <observation-type>
pIC50

>  <observed-measurement>
5.68

$$$$
>  <compound>
Cc1ccccc1-c1ccc([C@@H]2[C@H]3CN(C(=O)c4cccnc4)CC(=O)N3[C@H]2CO)cc1

>  <observation-type>
pIC50

>  <observed-measurement>
5.59

$$$$
>  <compound>
Cc1cccc(-c2ccc([C@@H]3[C@H]4CN(C(=O)c5cccnc5)CCCCN4[C@H]3CO)cc2)c1

>  <observation-type>
pIC50

>  <observed-measurement>
5.18

$$$$

Could you share which pIC50 value was measured for CO[C@H]1CN(C)C(=O)c2cc(NC(=O)c3ccc(Oc4ccccc4)cc3)ccc2OC[C@H](C)NC[C@H]1C ? 5.55

Also Cc1cccc(-c2ccc([C@@H]3[C@H]4CN(C(=O)c5cccnc5)CC(=O)N4[C@H]3CO)cc2)c1 , if possible. 5.38

Also COc1ccccc1-c1ccc(C2[C@@H]3CN(C(=O)c4cccnc4)C[C@H]2N3)cc1 (stereo partly drawn) , if possible. 5.15

---

target: Insulin-degrading enzyme (Homo sapiens) (UniProt P14735); experiment: inhibitors of IDE decapeptide proteolysis, dose response, counter-screen for IDE exo-site inhibitor project, biochemical, kinetic mode (AID 1259348); settings: purified human IDE, fluorogenic decapeptide proteolysis
observation-type: IC50

Please review the following examples before continuing.
>  <compound-structure>
Cc1ccccc1-c1ccc([C@H]2[C@H](CO)N3C(=O)CN(C(=O)NC4CCCC4)C[C@@H]23)cc1

>  <observed-measurement>
0.37 µM

$$$$
>  <compound-structure>
Cc1ccccc1-c1ccc([C@H]2[C@H](CO)N3C(=O)CN(C(=O)c4cccnc4)C[C@@H]23)cc1

>  <observed-measurement>
6.1 µM

$$$$
>  <compound-structure>
Cc1ccccc1-c1ccc([C@@H]2[C@H](CO)N3CCCCN(C(=O)NC4CCCC4)C[C@@H]23)cc1

>  <observed-measurement>
1.55 µM

$$$$

Kindly review the next compound as well.
Could you share which IC50 value was measured for O=C(C1CCOCC1)N1CC(=O)N2[C@H](CO)[C@H](c3ccc(C#Cc4cccc(F)c4)cc3)[C@H]2C1 ? 5.3 µM

---

Property: IC50; scope: individual compounds
target: Insulin-degrading enzyme (Homo sapiens); assay: inhibitors of IDE decapeptide proteolysis, dose response, counter-screen for IDE exo-site inhibitor project, biochemical, kinetic mode (AID 1259348); conditions: purified human IDE, fluorogenic decapeptide proteolysis

>  <compound>
Cc1cccc(-c2ccc([C@H]3[C@H](CO)N4C(=O)CN(C(=O)NC5CCCCC5)C[C@@H]34)cc2)c1

>  <system-name>
Insulin-degrading enzyme (Homo sapiens)

>  <observed-measurement>
3.2 µM

$$$$
>  <compound>
Cc1ccccc1-c1ccc(C2[C@@H]3CN(Cc4cncnc4)C[C@H]2N3)cc1 (stereo partly specified)

>  <system-name>
Insulin-degrading enzyme (Homo sapiens)

>  <observed-measurement>
6.7 µM

$$$$
>  <compound>
Cc1ccccc1-c1ccc([C@@H]2[C@@H](CO)N3CCCCN(S(=O)(=O)c4ccc(F)cc4)C[C@@H]23)cc1

>  <system-name>
Insulin-degrading enzyme (Homo sapiens)

>  <observed-measurement>
0.34 µM

$$$$
>  <compound>
Cc1cccc(-c2ccc([C@@H]3[C@@H](CO)N4C(=O)CN(C(=O)Cc5ccccn5)C[C@@H]34)cc2)c1

>  <system-name>
Insulin-degrading enzyme (Homo sapiens)

>  <observed-measurement>
3.3 µM

$$$$
>  <compound>
COc1ccccc1-c1ccc([C@H]2[C@@H](CO)N[C@@H]2CNC(=O)C2CCCC2)cc1

>  <system-name>
Insulin-degrading enzyme (Homo sapiens)

>  <observed-measurement>
5.1 µM

$$$$
>  <compound>
Cc1ccccc1-c1ccc([C@H]2[C@H]3CN(C(=O)NC4CCCC4)CC(=O)N3[C@H]2CO)cc1

>  <system-name>
Insulin-degrading enzyme (Homo sapiens)

>  <observed-measurement>
6 µM

$$$$

Could you share which IC50 value was measured for CCS(=O)(=O)N1CCCCN2[C@H](CO)[C@@H](c3ccc(-c4ccccc4C)cc3)[C@@H]2C1 ? 0.41 µM

Also Cc1ccccc1-c1ccc(C2[C@@H]3CN(C(=O)c4cnccn4)C[C@H]2N3)cc1 (stereo partly specified) , if possible. 2 µM

Also Cc1ccccc1-c1ccc([C@H]2[C@@H](CO)N3C(=O)CN(C(=O)Cc4ccccn4)C[C@@H]23)cc1 , if possible. 3.2 µM

Also Cc1ccccc1-c1ccc([C@H]2[C@@H](CO)N3CCCCN(C(=O)Nc4ccc(F)cc4)C[C@@H]23)cc1 , if possible. 3 µM

Also COc1ccccc1-c1ccc([C@H]2[C@@H](CO)N3CCCCN(C(=O)c4ccncc4)C[C@H]23)cc1 , if possible. 4.9 µM

---

Property: pIC50; scope: individual compounds
target: Insulin-degrading enzyme (Homo sapiens) (UniProt P14735); assay: inhibitors of IDE decapeptide proteolysis, dose response, counter-screen for IDE exo-site inhibitor project, biochemical, kinetic mode (AID 1259348); settings: purified human IDE, fluorogenic decapeptide proteolysis
pIC50 field: float, defined as -log10 of concentration (mol/L).

Please review the following examples before continuing.
>  <compound-structure>
COc1ccccc1-c1ccc([C@H]2[C@H](C#N)N[C@@H]2CO)cc1

>  <pIC50>
5.20

$$$$
>  <compound-structure>
Cc1ccccc1-c1ccc([C@H]2[C@@H](CO)N3CCCCN(S(=O)(=O)c4ccc(F)cc4)C[C@@H]23)cc1

>  <pIC50>
4.07

$$$$
>  <compound-structure>
CCCNC(=O)N1CC(=O)N2[C@@H](CO)[C@@H](c3ccc(C#Cc4cccc(OC)c4)cc3)[C@@H]2C1

>  <pIC50>
4.96

$$$$

Kindly review the next compound as well.
Could you share which pIC50 value was measured for COc1ccccc1-c1ccc([C@H]2[C@@H](CO)N3CCCCN(C(=O)NC4CCCC4)C[C@H]23)cc1 ? 5.59
